Listing: EC50 (% of hG-CSF) conjugated to SPA-PEG 5000 of selected binders
TARGET SYSTEM: T1, human G-CSF receptor (human, UniProt Q99062 25-836)
T1 sequence (looked up): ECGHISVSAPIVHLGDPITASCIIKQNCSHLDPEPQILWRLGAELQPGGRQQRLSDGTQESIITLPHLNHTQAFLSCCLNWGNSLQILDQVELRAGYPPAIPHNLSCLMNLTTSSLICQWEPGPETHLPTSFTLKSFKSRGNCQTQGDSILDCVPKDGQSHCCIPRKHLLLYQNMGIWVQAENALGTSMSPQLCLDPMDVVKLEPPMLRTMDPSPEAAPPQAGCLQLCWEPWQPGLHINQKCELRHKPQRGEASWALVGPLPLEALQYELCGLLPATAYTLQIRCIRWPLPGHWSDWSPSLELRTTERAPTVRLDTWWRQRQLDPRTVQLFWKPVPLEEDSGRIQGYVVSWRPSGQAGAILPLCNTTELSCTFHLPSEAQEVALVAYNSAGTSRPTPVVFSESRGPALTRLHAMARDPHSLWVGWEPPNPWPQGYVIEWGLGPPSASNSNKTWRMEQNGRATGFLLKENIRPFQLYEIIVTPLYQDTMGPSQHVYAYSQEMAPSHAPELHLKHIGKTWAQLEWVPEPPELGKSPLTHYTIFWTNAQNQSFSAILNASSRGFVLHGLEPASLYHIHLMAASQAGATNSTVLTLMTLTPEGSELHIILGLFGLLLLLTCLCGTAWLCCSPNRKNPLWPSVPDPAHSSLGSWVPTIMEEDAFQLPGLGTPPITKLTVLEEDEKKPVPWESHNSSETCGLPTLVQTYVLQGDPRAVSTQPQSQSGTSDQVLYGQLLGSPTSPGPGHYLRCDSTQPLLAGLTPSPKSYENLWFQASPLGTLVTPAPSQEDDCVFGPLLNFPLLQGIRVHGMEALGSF
ASSAY NAME: cell-based or functional assay
MEASUREMENT LABEL: EC50 (% of hG-CSF) conjugated to SPA-PEG 5000

| BINDER | ENDPOINT VALUE |
| --- | --- |
| G-CSF variant K16/34/40R D104K conjugated to SPA-PEG 5000 (ligand, SPA-PEG 5000 conjugated to the available PEGylation sites) TPLGPASSLPQSFLLRCLEQVRKIQGDGAALQERLCATYRLCHPEELVLLGHSLGIPWAPLSSCPSQALQLAGCLSQLHSGLFLYQGLLQALEGISPELGPTLKTLQLDVADFATTIWQQMEELGMAPALQPTQGAMPAFASAFQRRAGGVLVASHLQSFLEVSYRVLRHLAQP | 0.9 % of hG-CSF |
| G-CSF variant K16/34/40R S53K conjugated to SPA-PEG 5000 (ligand, SPA-PEG 5000 conjugated to the available PEGylation sites) TPLGPASSLPQSFLLRCLEQVRKIQGDGAALQERLCATYRLCHPEELVLLGHKLGIPWAPLSSCPSQALQLAGCLSQLHSGLFLYQGLLQALEGISPELGPTLDTLQLDVADFATTIWQQMEELGMAPALQPTQGAMPAFASAFQRRAGGVLVASHLQSFLEVSYRVLRHLAQP | 0.5 % of hG-CSF |
| G-CSF variant K16/34/40R Q70K Q120K T133K conjugated to SPA-PEG 5000 (ligand, SPA-PEG 5000 conjugated to the available PEGylation sites) TPLGPASSLPQSFLLRCLEQVRKIQGDGAALQERLCATYRLCHPEELVLLGHSLGIPWAPLSSCPSQALKLAGCLSQLHSGLFLYQGLLQALEGISPELGPTLDTLQLDVADFATTIWQKMEELGMAPALQPKQGAMPAFASAFQRRAGGVLVASHLQSFLEVSYRVLRHLAQP | 2 % of hG-CSF |
| G-CSF variant K16/34/40R Q120K T133K conjugated to SPA-PEG 5000 (ligand, SPA-PEG 5000 conjugated to the available PEGylation sites) TPLGPASSLPQSFLLRCLEQVRKIQGDGAALQERLCATYRLCHPEELVLLGHSLGIPWAPLSSCPSQALQLAGCLSQLHSGLFLYQGLLQALEGISPELGPTLDTLQLDVADFATTIWQKMEELGMAPALQPKQGAMPAFASAFQRRAGGVLVASHLQSFLEVSYRVLRHLAQP | 8 % of hG-CSF |
| G-CSF variant K16/34/40R Q90K T105K T133K conjugated to SPA-PEG 5000 (ligand, SPA-PEG 5000 conjugated to the available PEGylation sites) TPLGPASSLPQSFLLRCLEQVRKIQGDGAALQERLCATYRLCHPEELVLLGHSLGIPWAPLSSCPSQALQLAGCLSQLHSGLFLYQGLLKALEGISPELGPTLDKLQLDVADFATTIWQQMEELGMAPALQPKQGAMPAFASAFQRRAGGVLVASHLQSFLEVSYRVLRHLAQP | 2 % of hG-CSF |
| G-CSF variant 23R conjugated to SPA-PEG 5000 (ligand, SPA-PEG 5000 conjugated to the available PEGylation sites) TPLGPASSLPQSFLLKCLEQVRRIQGDGAALQEKLCATYKLCHPEELVLLGHSLGIPWAPLSSCPSQALQLAGCLSQLHSGLFLYQGLLQALEGISPELGPTLDTLQLDVADFATTIWQQMEELGMAPALQPTQGAMPAFASAFQRRAGGVLVASHLQSFLEVSYRVLRHLAQP | 0.1 % of hG-CSF |

Data credit: patent US20030118612A1
